The values you see were collected from ChEMBL document CHEMBL5532647.

study-system: Monoglyceride lipase (Homo sapiens)
measurement-notes: Inhibition of human recombinant MAGL using 4-nitrophenylacetate as substrate incubated for 30 mins by microplate reader analysis
assay-readout: IC50 (nM)
Express the result in nM but write the number alone.

Here's what some known entries look like.
>>> measured_number("O=C(c1cccc(O)c1)N1CCC(Cc2cccc(Sc3ccc(C(F)(F)F)cn3)c2)CC1")
40.4
>>> measured_number("O=C(c1cc(O)ccc1F)N1CCC(Cc2cccc(Sc3cc(C(F)(F)F)ccn3)c2)CC1")
1.3
>>> measured_number("O=C(Nc1ccc(O)cc1C(=O)N1CCC(Cc2cccc(Sc3cc(C(F)(F)F)ccn3)c2)CC1)c1ccccc1")
112
>>> measured_number("O=C(c1cccc(O)c1)N1CCC(Cc2cccc(Sc3cc(C(F)(F)F)ccn3)c2)CC1")
2.5

Turning now to a further record.
Find the measured IC50: item O=C(c1cc(O)ccc1Sc1ccccc1)N1CCC(Cc2cccc(Sc3cc(C(F)(F)F)ccn3)c2)CC1 , target or system Monoglyceride lipase (Homo sapiens).
32.3

----------
study-system: Monoglyceride lipase (Homo sapiens, UniProt Q99685)
measurement-notes: Reversible inhibition of MAGL in human U-937 cells using 2-oleoylglycerol as substrate preincubated with compound for 30 mins followed by substrate addition and measured after 5 mins
Assay type: cell-based
Measured pIC50 values are reported for all entries that follow.
As a rule, pIC50 stands for the negative log10 of the concentration, concentration in M.

Completed entries (count: 3):
>>> measured_number("O=C(c1cccc(O)c1)N1CCC(Cc2cccc(Sc3cc(C(F)(F)F)ccn3)c2)CC1")
6.71
>>> measured_number("O=C(c1cccc(O)c1)N1CCC(Cc2ccc(F)c(Sc3cc(C(F)(F)F)ccn3)c2)CC1")
6.71
>>> measured_number("O=C(c1cc(O)ccc1F)N1CCC(Cc2cccc(Sc3cc(C(F)(F)F)ccn3)c2)CC1")
6.70

For the next question, use this molecule.
Looking for the measured pIC50 of O=C(c1cc(O)ccc1F)N1CCN(Cc2cccc(Sc3cc(C(F)(F)F)ccn3)c2)CC1 , can you help?
6.31

----------
study-system: Fatty-acid amide hydrolase 1 (Mus musculus)
Sequence (whole entry): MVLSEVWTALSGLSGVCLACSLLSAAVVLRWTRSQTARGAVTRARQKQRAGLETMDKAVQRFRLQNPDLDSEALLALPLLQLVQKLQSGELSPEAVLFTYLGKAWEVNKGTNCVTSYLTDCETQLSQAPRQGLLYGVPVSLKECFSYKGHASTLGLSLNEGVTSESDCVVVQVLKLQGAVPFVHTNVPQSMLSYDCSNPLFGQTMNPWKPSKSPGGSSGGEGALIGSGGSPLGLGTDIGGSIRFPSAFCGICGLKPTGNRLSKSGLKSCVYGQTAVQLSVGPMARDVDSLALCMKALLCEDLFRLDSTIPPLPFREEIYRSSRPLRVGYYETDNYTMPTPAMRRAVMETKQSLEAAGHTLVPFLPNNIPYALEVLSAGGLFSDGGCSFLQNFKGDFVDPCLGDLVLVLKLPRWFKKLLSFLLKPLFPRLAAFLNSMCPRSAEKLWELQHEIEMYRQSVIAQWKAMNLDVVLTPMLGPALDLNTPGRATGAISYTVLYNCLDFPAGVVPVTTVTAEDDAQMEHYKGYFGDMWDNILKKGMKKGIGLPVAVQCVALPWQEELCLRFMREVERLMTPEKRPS
measurement-notes: Inhibition of mouse brain FAAH at 10 uM incubated with compound for 25 mins by TAMRA-FP probe based SDS-PAGE analysis
Assay type: tissue-based
Calls of active or inactive are those of the source. The calls are words filed in the database; no cut-off is given here.
assay-readout: inhibition

>>> result("O=C(c1cc(O)ccc1F)N1CCN(Cc2cccc(Sc3cc(C(F)(F)F)ccn3)c2)CC1")
"inactive"
>>> result("O=C(c1cccc(O)c1)N1CCC(Cc2ccc(F)c(Sc3cc(C(F)(F)F)ccn3)c2)CC1")
"inactive"
>>> result("O=C(c1cc(O)ccc1F)N1CCC(Cc2cccc(Sc3cc(C(F)(F)F)ccn3)c2)CC1")
"inactive"
>>> result("O=C(c1cccc(O)c1)N1CCC(Cc2cccc(Sc3cc(C(F)(F)F)ccn3)c2)CC1")
"inactive"

----------
Listing of recorded pIC50 by entry.
study-system: Monoglyceride lipase (Homo sapiens, UniProt Q99685)
Sequence (Q99685 whole entry): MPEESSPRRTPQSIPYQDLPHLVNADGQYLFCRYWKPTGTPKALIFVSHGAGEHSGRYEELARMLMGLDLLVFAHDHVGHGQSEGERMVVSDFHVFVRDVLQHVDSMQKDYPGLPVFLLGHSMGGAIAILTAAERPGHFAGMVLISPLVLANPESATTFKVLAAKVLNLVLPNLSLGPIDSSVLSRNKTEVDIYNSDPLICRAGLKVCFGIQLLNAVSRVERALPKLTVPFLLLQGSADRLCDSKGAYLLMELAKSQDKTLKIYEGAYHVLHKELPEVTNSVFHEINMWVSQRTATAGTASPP
measurement-notes: Inhibition of human recombinant MAGL using 4-nitrophenylacetate as substrate incubated for 30 mins by microplate reader analysis
# pIC50: negative log10 of molar concentration; output just the value

Example results:
>>> measured_number("COc1ccc(Sc2cc(C(F)(F)F)ccn2)cc1CC1CCN(C(=O)c2cccc(O)c2)CC1")
7.31
>>> measured_number("COc1ccc(CC2CCN(C(=O)c3cccc(O)c3)CC2)cc1Sc1cc(C(F)(F)F)ccn1")
7.84
>>> measured_number("O=C(c1cccc(O)c1)N1CCC(Cc2cccc(Sc3cccc(C(F)(F)F)n3)c2)CC1")
7.88
>>> measured_number("O=C(c1cccc(O)c1)N1CCC(Cc2cccc(Sc3ncccc3C(F)(F)F)c2)CC1")
8.15
>>> measured_number("O=C(c1cccc(O)c1)N1CCC(Cc2ccc(O)c(Sc3cc(C(F)(F)F)ccn3)c2)CC1")
7.21

Please report the recorded pIC50 for O=C(c1cc(O)cc(Sc2ccccc2)c1)N1CCC(Cc2cccc(Sc3cc(C(F)(F)F)ccn3)c2)CC1 .
7.35

Fill blank: measured pIC50 of the molecule O=C(c1cccc(O)c1)N1CCC(Cc2cc(Sc3cc(C(F)(F)F)ccn3)ccc2F)CC1 is ____.
7.65

Given the entry O=C(c1cc(O)ccc1F)N1CCN(Cc2cccc(Sc3cc(C(F)(F)F)ccn3)c2)CC1 , report its measured pIC50.
8.28

----------
measurement-notes: Stability in human plasma measured after 24 hrs by UV/LC-MS analysis
Format: ADME, cell-free
experimental-setup: read-out: Stability
assay-readout: remaining at 24 h

Below, 2 compounds whose answers are already recorded.
>>> result("O=C(c1cc(O)ccc1F)N1CCC(Cc2cccc(Sc3cc(C(F)(F)F)ccn3)c2)CC1")
"74.1%"
>>> result("O=C(c1ccc(Sc2cccc(C(F)(F)F)c2)cc1)C1CCN(C(=O)c2cc(O)ccc2F)CC1")
"> 99%"

# remaining at 24 h lookup, item O=C(c1cc(O)ccc1F)N1CCN(Cc2cccc(Sc3cc(C(F)(F)F)ccn3)c2)CC1
> 99%

----------
measurement-notes: Toxicity in Tenebrio molitor coleoptera assessed as lethal dose measured for 7 days
experimental-setup: time 7 day
// reported LD50 at 168 h per item
Give the quantity in mg/kg, number only.

>>> measured_number("O=C(c1cc(O)ccc1F)N1CCN(Cc2cccc(Sc3cc(C(F)(F)F)ccn3)c2)CC1")
300

Proceeding to the next molecule to report its LD50 at 168 h.
Name the recorded LD50 at 168 h for O=C(c1cc(O)ccc1F)N1CCC(Cc2cccc(Sc3cc(C(F)(F)F)ccn3)c2)CC1 .
200

----------
study-system: Fatty-acid amide hydrolase 1 (Homo sapiens) (UniProt O00519)
Sequence (O00519 whole entry): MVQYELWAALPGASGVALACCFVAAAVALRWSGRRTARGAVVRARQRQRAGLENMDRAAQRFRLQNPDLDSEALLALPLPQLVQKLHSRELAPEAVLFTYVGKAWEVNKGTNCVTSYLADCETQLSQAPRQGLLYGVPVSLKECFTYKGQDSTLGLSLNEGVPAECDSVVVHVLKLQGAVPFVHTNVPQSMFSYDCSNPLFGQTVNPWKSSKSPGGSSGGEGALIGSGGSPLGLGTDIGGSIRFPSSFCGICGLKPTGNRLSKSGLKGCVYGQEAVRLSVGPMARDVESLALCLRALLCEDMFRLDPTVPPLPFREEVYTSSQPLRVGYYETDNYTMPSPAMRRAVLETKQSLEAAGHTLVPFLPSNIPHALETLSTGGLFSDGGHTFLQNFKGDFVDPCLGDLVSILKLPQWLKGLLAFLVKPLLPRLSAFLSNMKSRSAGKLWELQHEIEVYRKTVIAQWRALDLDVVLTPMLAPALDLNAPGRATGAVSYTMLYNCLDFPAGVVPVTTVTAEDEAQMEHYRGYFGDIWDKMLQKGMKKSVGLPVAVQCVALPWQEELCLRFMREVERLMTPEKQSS
measurement-notes: Inhibition of FAAH in human U-937 cells at 10 uM preincubated with compound for 15 mins followed by 2-OG addition and measured after 15 mins by scintillation liquid counter analysis
Assay type: cell-based
experimental-setup: time 30.0 min
Active and inactive are the calls of the source. No cut-off for these calls is given here.
assay-readout: inhibition

>>> result("O=C(c1cc(O)ccc1F)N1CCN(Cc2cccc(Sc3cc(C(F)(F)F)ccn3)c2)CC1")
"inactive"
>>> result("O=C(c1cc(O)ccc1F)N1CCC(Cc2cccc(Sc3cc(C(F)(F)F)ccn3)c2)CC1")
"inactive"
>>> result("O=C(c1cccc(O)c1)N1CCC(Cc2ccc(F)c(Sc3cc(C(F)(F)F)ccn3)c2)CC1")
"inactive"
>>> result("O=C(c1cccc(O)c1)N1CCC(Cc2cccc(Sc3cc(C(F)(F)F)ccn3)c2)CC1")
"inactive"
